- Target of assay: microRNA 21
- Test protocol: Inhibition of Dicer-mediated pre-miRNA-21 (unknown origin) processing using […] as substrate incubated for 15 mins by cat-ELCCA assay
*1 amine or outer side, *2 acyl side, *3 side chain or, on linkers, in order; H or OH if unused. Where a SMILES comes first, the peptide text is derived from it. Bridges are numbered along the chain shown (N, C = ends). X1 = CCC(C)CCCCCCCCC(CC(=O)[*:1])O[*:2]; X3 = CC(C)CCCCCCCCC(CC(=O)[*:1])O[*:2]; X2 = CCCCCCCCCCCC(CC(=O)[*:1])O[*:2]; X4 = CCCCCCCCCCC(CC(=O)[*:1])O[*:2]
Would you mind telling me the reported IC50 of each entry?
Report only the number, with the unit µM understood.

Measured IC50 of CCCCCCCCCCC1CC(=O)N[C@@H](CCC(=O)O)C(=O)N[C@@H](CC(C)C)C(=O)N[C@@H](CC(C)C)C(=O)N[C@@H](C(C)C)C(=O)N[C@@H](CC(=O)O)C(=O)N[C@@H](CC(C)C)C(=O)N[C@@H](CC(C)C)C(=O)O1 (stereo partly specified) (ELLVDLL; linker N-C via X4) : 71

Measured IC50 of CCCCCCCCCCCC1CC(=O)N[C@@H](CCC(=O)O)C(=O)N[C@@H](CC(C)C)C(=O)N[C@@H](CC(C)C)C(=O)N[C@@H](C(C)C)C(=O)N[C@@H](CC(=O)O)C(=O)N[C@@H](CC(C)C)C(=O)N[C@@H](CC(C)C)C(=O)O1 (stereo partly specified) (ELLVDLL; linker N-C via X2) : 48

Measured IC50 of CCC(C)CCCCCCCCC1CC(=O)N[C@@H](CCC(=O)O)C(=O)N[C@@H](CC(C)C)C(=O)N[C@@H](CC(C)C)C(=O)N[C@@H](C(C)C)C(=O)N[C@@H](CC(=O)O)C(=O)N[C@@H](CC(C)C)C(=O)N[C@@H](CC(C)C)C(=O)O1 (stereo partly specified) (ELLVDLL; linker N-C via X1) : 38

Measured IC50 of CC(C)CCCCCCCCC1CC(=O)N[C@@H](CCC(=O)O)C(=O)N[C@@H](CC(C)C)C(=O)N[C@@H](CC(C)C)C(=O)N[C@@H](C(C)C)C(=O)N[C@@H](CC(=O)O)C(=O)N[C@@H](CC(C)C)C(=O)N[C@@H](CC(C)C)C(=O)O1 (stereo partly specified) (ELLVDLL; linker N-C via X3) : 52
